Value source: patent US8299115B2

Record form. Attribute: pEC50. Fill in for each entry.
Target: human recombinant glucokinase (Homo sapiens)
Experiment: Characterization of partial glucokinase activators: dose-dependent effect on S0.5 of glucokinase for glucose (% ΔS0.5)
Type: biochemical
Settings: sigmoidal fit of % ΔS0.5 vs log compound concentration; read-out: EC50 (with respect to % ΔS0.5)
From the text: Glucokinase (GK) activity, in vitro, has been measured using a coupled enzymatic assay (Ref: Hariharan et al (1997) Diabetes 46: 11-16). GK catalyzes the first step, the conversion of glucose to glucose-6-phosphate (G6P) in the presence of ATP. […] The rate of the GK-catalyzed reaction can therefore be measured by monitoring the increase in NADH absorbance at 340 nm. […]
Quick note: pEC50 means taking -log10 of the concentration in moles per liter.

Lab note: need pEC50 with human recombinant glucokinase (Homo sapiens) for entry `CC(C)Cc1cc(C(=O)Nc2ncc(Cl)s2)n(Cc2ccc(F)c(C(F)(F)F)c2)c1` , please look it up. 6.66

Lab note: need pEC50 with human recombinant glucokinase (Homo sapiens) for entry `CC(C)Cc1cc(C(=O)Nc2ncc(Cl)s2)n(Cc2ccc(F)c(F)c2)c1` , please look it up. 6.70

Lab note: need pEC50 with human recombinant glucokinase (Homo sapiens) for entry `CCOC(=O)Cc1nc(NC(=O)c2cc(CC(C)C)cn2Cc2ccc(F)c(F)c2)sc1Cl` , please look it up. 6.52

---

Record form. Attribute: pEC50. Fill in for each entry.
Molecular target: human recombinant glucokinase (Homo sapiens, UniProt P35557)
Sequence (P35557 whole entry): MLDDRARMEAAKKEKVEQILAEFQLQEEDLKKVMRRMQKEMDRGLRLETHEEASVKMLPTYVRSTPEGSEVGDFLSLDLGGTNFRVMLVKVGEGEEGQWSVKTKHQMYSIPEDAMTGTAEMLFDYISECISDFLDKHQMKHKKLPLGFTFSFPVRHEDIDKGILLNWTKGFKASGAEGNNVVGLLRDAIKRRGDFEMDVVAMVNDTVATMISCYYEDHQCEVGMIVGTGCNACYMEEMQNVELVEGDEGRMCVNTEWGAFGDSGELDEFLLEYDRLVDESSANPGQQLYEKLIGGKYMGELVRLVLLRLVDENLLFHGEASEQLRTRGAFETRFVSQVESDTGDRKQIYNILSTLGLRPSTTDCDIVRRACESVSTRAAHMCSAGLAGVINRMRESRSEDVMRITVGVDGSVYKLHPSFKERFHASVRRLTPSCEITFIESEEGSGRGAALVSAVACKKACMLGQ
Assay: Glucokinase activation, coupled enzymatic assay (G6PD/NADH) at 5 mM glucose
Type: biochemical
Conditions: read-out: EC50 for GK activation at 5 mM glucose
Quick note: pEC50 means taking -log10 of the concentration in moles per liter.

# get_value(readout='pEC50', item= CC(C)C(O)c1cc(C(=O)Nc2ncc(Cl)s2)n(Cc2ccc(F)c(F)c2)c1 (stereo not shown) [Example C2] ) 6.20

# get_value(readout='pEC50', item= CC(C)C(O)c1cc(C(=O)Nc2nccs2)n(Cc2ccc(S(C)(=O)=O)cc2)c1 (stereo not shown) [Example C6] ) 6.22

# get_value(readout='pEC50', item= CC(C)C(O)c1cc(C(=O)Nc2ncc(F)s2)n(Cc2ccc(S(C)(=O)=O)cc2)c1 (stereo not shown) [Example C8] ) 6.37

# get_value(readout='pEC50', item= CS(=O)(=O)c1ccc(Cc2cc(C(=O)Nc3nc(CC(=O)O)c(Cl)s3)n(Cc3ccc(F)c(F)c3)c2)cc1 [Example E23] ) 6.52
